- Test system: OVCAR-8
- TEST_NAME: NCI tumour cell line growth inhibition, 48 h
The source made the active and inactive calls. Rule as the data show it: active = GI50 up to about 1.1 µM and inactive = higher.
Outcome codes: active, inactive

COMPOUND	GROUP
CC(=O)c1cc([N+](=O)[O-])ccc1OCC(=O)O	inactive
CC[N+](CC)(CC)Cc1cn(S(=O)(=O)c2ccccc2)c2ccccc12	inactive
N#CC(/N=N/c1ccc(Cl)cc1)c1nc2ccccc2o1 (stereo unspecified)	inactive
CCC(=O)NC(Nc1ccccc1F)(C(F)(F)F)C(F)(F)F	inactive
O=C1c2ccccc2C(=O)c2c1cc(S(=O)(=O)O)c(O)c2O [Alizarin Red S]	inactive
O=C(Cn1ccnc1[N+](=O)[O-])NCCO [ETANIDAZOLE]	inactive
Nc1nnc2n1C(=O)C(C1(C3=Nc4nnc(N)n4C3=O)Cc3ccccc3C1=O)=N2	inactive
NC(=O)CC(N/C=C1/N=C(c2ccccc2)OC1=O)C(=O)O (stereo unspecified)	inactive
COC(=O)c1cc(-c2ccc(OC)c(OC)c2)oc1-c1ccc(OC)c(OC)c1	inactive
COc1ccc2c(c1)OCc1c-2oc2ccccc2c1=O	inactive
CNc1ncc(-c2nnnn2-c2ccccc2)c(CN(C)C)n1	inactive
CCOc1ccc2nc(NC(=O)C(=O)C(C(=O)c3ccccc3-c3ccccc3)C3OC(=O)c4ccccc43)sc2c1 (stereo unspecified)	inactive
CC(C)(C)OC(=O)NC(Cc1ccccc1)C(=S)N1CCCC1 (stereo unspecified)	inactive
COc1ccc(C(CC(C)=O)c2c(O)c3ccccc3oc2=O)cc1OC (stereo unspecified)	inactive
CN(C)/N=N/c1nc2c(c(=O)n(C)c(=O)n2C)n1CC(O)CO (stereo unspecified)	inactive
O=C(/C=C/c1ccc(OCc2ccccc2)c(OCc2ccccc2)c1)OCc1ccccc1	inactive
O=C1OC(c2ccccc2)(c2ccccc2)c2ccc3ccc(F)cc3c21	inactive
C=C1C(=O)O[C@@H]2CC(CO)=C([C@@H](C)CCCO)[C@@H](OC(=O)/C(C)=C\C)[C@H]12	inactive
CC(C)(C)OC(=O)NCC(=O)NC1CC=CCC1NC(=O)CNC(=O)OC(C)(C)C (stereo unspecified)	inactive
O=S(=O)(O)c1cc(O)c2c(O)c(/N=N/c3cccc4ccccc34)c(S(=O)(=O)O)cc2c1	inactive
O=C1C(Cl)=C(N[C@@H](Cc2ccccc2)C(=O)OCc2ccccc2)C(=O)c2c(O)ccc(O)c21	inactive
O=C(NCCCCNCCCNC(=O)c1ccccc1)c1ccccc1	inactive
CC1(C)OC2C(CO)OC(n3ccc(N)nc3=O)C2O1 (stereo unspecified)	inactive
Cc1ccc(S(=O)(=O)OC2CC(C(C)(C)C)CCC2c2ccccc2)cc1 (stereo unspecified)	inactive
COc1ccc(OC)c(C(=O)c2cccc(C(=O)c3cc(OC)ccc3OC)n2)c1	inactive
CCCCCCCCCC[C@@H](O)[C@H]1CC[C@H]([C@H]2CC[C@H]([C@H](O)CCCCCCCCCC[C@@H]3CC(CC(C)=O)C(=O)O3)O2)O1 (stereo partly specified)	inactive
CC(C)c1cccc2sc(NC(=O)C(=O)CC(=O)c3ccc(F)cc3)nc12	inactive
CC[C@]1(Cc2ccc(OC)c(OC)c2)C=[N+]([O-])O[C@H](OC2CCCC2(c2ccccc2)c2ccccc2)[C@@H]1OC(=O)c1ccccc1 (stereo partly specified)	inactive
Cn1c(N)c(Cc2ccc(Cl)cc2)c(=O)[nH]c1=O	inactive
O=c1oc2ccccc2cc1-c1ccc([N+](=O)[O-])cc1	inactive
O=[N+]([O-])c1ccc(C(c2c[nH]c3ccccc23)c2c[nH]c3ccccc23)cc1	inactive
Cc1ccc(C(=O)C2=CN=C3C(=O)N(c4ccccc4)N(C)C3(C)C2=N)cc1 (stereo unspecified)	inactive
CCOP(=O)(OCC)C(Nc1ccc(Br)cc1)c1cccc([N+](=O)[O-])c1 (stereo unspecified)	inactive
O=C1C=CC2(C=C1)O[C@H](Cc1ccccc1)[C@@H](Cc1ccccc1)O2	active
Cn1c2c(c3ccccc31)CCN1C(=O)CN(C(=O)C3CCCCC3)CC21 (stereo unspecified)	inactive
CN(C)c1ccc(/C=N/N=C2\C(=O)Nc3c(Cl)cc(Cl)cc32)cc1	inactive
Cc1ccc(/C=C/C(=O)CCN(C)C)cc1	inactive
CC1CCN(CCC(=O)CC(c2ccccc2)c2c(O)c3ccccc3oc2=O)CC1 (stereo unspecified)	inactive
COc1cc(NS(C)(=O)=O)ccc1NCc1c[nH]c2ccc3nc(C)ccc3c12	inactive
Nc1nc(Cl)c(/C=N\O)c(NCC2(CO)CCC2)n1	inactive
CCCCCC1=C/C(=C\c2[nH]c(-c3ccc[nH]3)cc2OC)N=C1C	active
